Assay: Stability at 40° C. and 75% relative humidity (percent purity by HPLC)
Type: physicochemical
Details: Table 2; 40° C. and 75% RH; T = 0 Days
Counter-ions that a name gives are not always drawn.
Exercise: state measured Percent Purity of 17-AG-HQ T = 0 Days for each of the compounds provided.
State just the number; it will be interpreted in %.

Given item CO[C@H]1/C=C\C=C(/C)C(=O)Nc2cc(O)c(N)c(c2O)C[C@@H](C)C[C@H](OC)[C@H](O)[C@@H](C)/C=C(\C)[C@@H]1OC(N)=O [17-AG-HQ of Example 6B, 17-amino-geldanamycin hydroquinone] , the value recorded as its Percent Purity of 17-AG-HQ T = 0 Days is 97

Form: compound = CO[C@H]1/C=C\C=C(/C)C(=O)Nc2cc(O)c(N)c(c2O)C[C@@H](C)C[C@H](OC)[C@H](O)[C@@H](C)/C=C(\C)[C@@H]1OC(N)=O [17-AG-HQ of Example 2, 17-amino-geldanamycin hydroquinone] ; Percent Purity of 17-AG-HQ T = 0 Days = 92

The compound listed as CO[C@H]1/C=C\C=C(/C)C(=O)Nc2cc(O)c(N)c(c2O)C[C@@H](C)C[C@H](OC)[C@H](O)[C@@H](C)/C=C(\C)[C@@H]1OC(N)=O [17-AG-HQ of Example 5, 17-amino-geldanamycin hydroquinone] shows Percent Purity of 17-AG-HQ T = 0 Days equal to 99

Percent Purity of 17-AG-HQ T = 0 Days recorded for this compound, CO[C@H]1/C=C\C=C(/C)C(=O)Nc2cc(O)c(N)c(c2O)C[C@@H](C)C[C@H](OC)[C@H](O)[C@@H](C)/C=C(\C)[C@@H]1OC(N)=O [17-AG-HQ-HCl salt] , is 99

# compound CO[C@H]1/C=C\C=C(/C)C(=O)Nc2cc(O)c(N)c(c2O)C[C@@H](C)C[C@H](OC)[C@H](O)[C@@H](C)/C=C(\C)[C@@H]1OC(N)=O [17-AG-HQ of Example 4, 17-amino-geldanamycin hydroquinone] ; its Percent Purity of 17-AG-HQ T = 0 Days = 99

The reported value for CO[C@H]1/C=C\C=C(/C)C(=O)Nc2cc(O)c(N)c(c2O)C[C@@H](C)C[C@H](OC)[C@H](O)[C@@H](C)/C=C(\C)[C@@H]1OC(N)=O [17-AG-HQ of Example 3, 17-amino-geldanamycin hydroquinone] in terms of Percent Purity of 17-AG-HQ T = 0 Days is 97

For CO[C@H]1/C=C\C=C(/C)C(=O)Nc2cc(O)c(N)c(c2O)C[C@@H](C)C[C@H](OC)[C@H](O)[C@@H](C)/C=C(\C)[C@@H]1OC(N)=O [17-AG-HQ of Example 6A, 17-amino-geldanamycin hydroquinone] the compound record lists Percent Purity of 17-AG-HQ T = 0 Days as 97

* * *

Would you kindly list Percent Purity of 17-AG-HQ T = 30 Days for each of these molecules?
Experiment: Stability at 40° C. and 75% relative humidity (percent purity by HPLC)
Format: physicochemical
Conditions: Table 2; 40° C. and 75% RH; T = 30 Days
Structures can show the parent of a compound that is named as a salt.
Reply with just the number (in %).

Just so you know, measured Percent Purity of 17-AG-HQ T = 30 Days for CO[C@H]1/C=C\C=C(/C)C(=O)Nc2cc(O)c(N)c(c2O)C[C@@H](C)C[C@H](OC)[C@H](O)[C@@H](C)/C=C(\C)[C@@H]1OC(N)=O [17-AG-HQ of Example 3, 17-amino-geldanamycin hydroquinone] came out at 79

Recorded Percent Purity of 17-AG-HQ T = 30 Days (molecule CO[C@H]1/C=C\C=C(/C)C(=O)Nc2cc(O)c(N)c(c2O)C[C@@H](C)C[C@H](OC)[C@H](O)[C@@H](C)/C=C(\C)[C@@H]1OC(N)=O [17-AG-HQ of Example 4, 17-amino-geldanamycin hydroquinone] ): 97

Value of Percent Purity of 17-AG-HQ T = 30 Days reported for the molecule CO[C@H]1/C=C\C=C(/C)C(=O)Nc2cc(O)c(N)c(c2O)C[C@@H](C)C[C@H](OC)[C@H](O)[C@@H](C)/C=C(\C)[C@@H]1OC(N)=O [17-AG-HQ-HCl salt] is 74

* * *

Give measured Percent Purity of 17-AG-HQ T = 30 Days for each item. Keep answers brief.
Experiment: Stability at 40° C. and 75% relative humidity (percent purity by HPLC)
Assay type: physicochemical
Conditions: Table 2; 40° C. and 75% RH; T = 30 Days
Method: […] The stability data for 17-AG-HQ of Example 2 when kept at 40° C. and 75% relative humidity (RH) is depicted in FIG. 8 (see Table 2 for tabulated stability data). It was observed that 17-AG-HQ of Example 2 completely oxidizes to its quinone form in two weeks at 40° C. and […] as determined by HPLC.
Give the figure together with its unit, number first.

Looking up CO[C@H]1/C=C\C=C(/C)C(=O)Nc2cc(O)c(N)c(c2O)C[C@@H](C)C[C@H](OC)[C@H](O)[C@@H](C)/C=C(\C)[C@@H]1OC(N)=O [17-AG-HQ of Example 5, 17-amino-geldanamycin hydroquinone] , I found its Percent Purity of 17-AG-HQ T = 30 Days recorded as 98%

The reported Percent Purity of 17-AG-HQ T = 30 Days of the molecule CO[C@H]1/C=C\C=C(/C)C(=O)Nc2cc(O)c(N)c(c2O)C[C@@H](C)C[C@H](OC)[C@H](O)[C@@H](C)/C=C(\C)[C@@H]1OC(N)=O [17-AG-HQ of Example 2, 17-amino-geldanamycin hydroquinone] was 0%
